Task for the reader: assign each of the following compounds its reported IC50.
Molecular target: ENPP1 (Homo sapiens (Human), UniProt P22413)
Sequence (P22413 whole entry, species assumed): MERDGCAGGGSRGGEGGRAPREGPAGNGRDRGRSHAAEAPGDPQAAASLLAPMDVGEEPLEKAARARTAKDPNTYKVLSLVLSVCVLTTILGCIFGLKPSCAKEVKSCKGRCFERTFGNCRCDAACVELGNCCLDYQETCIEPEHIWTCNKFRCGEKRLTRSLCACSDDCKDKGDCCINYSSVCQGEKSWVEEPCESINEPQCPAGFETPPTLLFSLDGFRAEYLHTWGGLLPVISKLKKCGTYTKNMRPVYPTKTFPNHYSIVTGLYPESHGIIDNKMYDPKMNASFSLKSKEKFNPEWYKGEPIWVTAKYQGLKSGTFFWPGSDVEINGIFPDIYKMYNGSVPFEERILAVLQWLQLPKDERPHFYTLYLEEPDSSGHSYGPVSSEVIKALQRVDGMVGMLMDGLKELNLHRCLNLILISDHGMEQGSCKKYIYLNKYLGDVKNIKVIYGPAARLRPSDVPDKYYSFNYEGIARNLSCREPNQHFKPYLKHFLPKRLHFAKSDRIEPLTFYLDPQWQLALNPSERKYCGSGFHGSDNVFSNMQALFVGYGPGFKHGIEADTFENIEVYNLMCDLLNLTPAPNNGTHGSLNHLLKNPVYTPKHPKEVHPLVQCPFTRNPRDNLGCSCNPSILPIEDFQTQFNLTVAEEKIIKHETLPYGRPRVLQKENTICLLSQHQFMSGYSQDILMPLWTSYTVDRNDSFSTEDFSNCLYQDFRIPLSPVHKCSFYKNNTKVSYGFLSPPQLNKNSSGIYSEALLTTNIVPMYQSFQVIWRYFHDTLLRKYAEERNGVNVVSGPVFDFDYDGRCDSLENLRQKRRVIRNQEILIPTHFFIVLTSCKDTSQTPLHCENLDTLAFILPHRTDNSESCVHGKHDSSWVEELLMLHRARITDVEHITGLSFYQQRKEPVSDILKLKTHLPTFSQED
Assay: ATP-Glo enzymatic assay (ATP substrate, AMP-Glo readout)
Format: biochemical
Conditions: 25° C. for 60 min, 50 mM Tris pH 8.8

Below, 7 compounds whose answers are already recorded.
compound: Cc1ncc2c(c1-c1ccccc1)n(Cc1c(F)cc(S(N)(=O)=O)cc1F)c(=O)n2C [Example 59]
property: IC50
experimental-value: < 1 nM
//
compound: Cc1ncc(-c2ccccc2)c2c1ncn2Cc1ccc(S(N)(=O)=O)cc1 [Example 30]
property: IC50
experimental-value: < 1 nM
//
compound: COc1ncc2c(c1-c1ccccc1)n(Cc1c(F)cc(S(N)(=O)=O)cc1F)c(=O)n2C [Example 56]
property: IC50
experimental-value: < 1 nM
//
compound: COc1ncc2nc(C(F)(F)F)n(Cc3ccc(S(N)(=O)=O)cn3)c2c1-c1ccccc1 [Example 77]
property: IC50
experimental-value: < 1 nM
//
compound: COc1ncc2c(c1-c1ccccc1)N(Cc1c(F)cc(S(N)(=O)=O)cc1F)C(=O)C2 [Example 57]
property: IC50
experimental-value: < 1 nM
//
compound: Cc1nc2cncc(-c3ccccc3)c2n1Cc1c(F)cc(S(N)(=O)=O)cc1F [Example 43]
property: IC50
experimental-value: < 1 nM
//
compound: Cc1ncc2nc(CF)n(Cc3c(F)cc(S(N)(=O)=O)cc3F)c2c1-c1ccccc1 [Example 47]
property: IC50
experimental-value: < 1 nM

Now consider the entry below.
**Query** Form field: IC50 recorded for COc1ncc2c(c1-c1ccccc1)n(Cc1ncc(S(N)(=O)=O)cc1F)c(=O)n2C [Example 80] with ENPP1 (Homo sapiens (Human), UniProt P22413) (enter value)
**Result** < 1 nM
